- System: Trichophyton Mentagrophytes (ATCC 9533)

{"columns": ["Molecule", "Units label", "MIC"],
 "data": [
  ["O=C(c1ccc2cccnc2c1O)N1CCCc2c(F)cc(F)cc21 [Example 70]", "µg/mL", 2],
  ["O=C(c1ccc2cccnc2c1O)N1C2CCCCC2C2CCCCC21 (centres unmarked) [Example 49]", "µg/mL", 1.41],
  ["CN(Cc1ccc(Cl)cc1)C(=O)c1ccc2cccnc2c1O [Example 56]", "µg/mL", 1],
  ["O=C(c1ccc2cccnc2c1O)N1CCCc2c(F)cccc21 [Example 71]", "µg/mL", 2],
  ["O=C(c1ccc2cccnc2c1O)N1CCC2CCCCC2C1 (centres unmarked) [Example 6]", "µg/mL", 1.41]
]}
